Target: HDAC2 (Homo sapiens, UniProt Q92769)
Construct: purchased Enzo Life Sciences
Sequence (Q92769 whole entry): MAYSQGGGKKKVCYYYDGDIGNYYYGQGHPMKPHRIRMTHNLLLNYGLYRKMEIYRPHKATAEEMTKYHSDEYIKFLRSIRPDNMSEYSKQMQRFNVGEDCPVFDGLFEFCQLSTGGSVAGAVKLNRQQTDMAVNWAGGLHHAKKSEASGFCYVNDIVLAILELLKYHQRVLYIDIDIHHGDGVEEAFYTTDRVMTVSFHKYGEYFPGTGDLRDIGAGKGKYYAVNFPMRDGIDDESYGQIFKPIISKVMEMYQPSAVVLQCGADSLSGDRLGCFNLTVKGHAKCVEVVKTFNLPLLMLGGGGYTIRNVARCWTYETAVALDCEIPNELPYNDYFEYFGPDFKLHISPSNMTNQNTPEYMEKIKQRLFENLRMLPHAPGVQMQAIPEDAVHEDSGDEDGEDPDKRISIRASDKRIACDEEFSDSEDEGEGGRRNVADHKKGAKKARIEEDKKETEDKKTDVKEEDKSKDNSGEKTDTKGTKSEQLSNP
Assay: HDAC Inhibition Screening Assay (FLUOR DE LYS Fluorimetric Drug Discovery Kit), HDAC2
Format: biochemical
Conditions: 50 μM compound
Description: The HDAC1/HDAC2/HDAC3 in vitro activities are detected by Enzo Life Sciences' HDAC1/HDAC2/HDAC3 Fluorimetric Drug Discovery Kit. The assay is based on the FLUOR DE LYS® Substrate and FLUOR DE LYS® Developer combination. The assay procedure has two steps. […] The signals of the test compounds (Compounds 1˜83; at concentrations of 2 μM, 10 μM and 50 μM) in 96-well plates are detected at 360 nm or 485 nm excitation and 460 nm or 530 nm emission with a Molecular Devices SpectraMax i3 Imaging Cytometer. […]
# Lookup of reported inhibition at 50 µM keyed by entry

Field: example entries. Status: answers known.
[
  {
    "MOLECULE": "O=C(/C=C/c1ccc2c(c1)CCC2NCCC(=O)Nc1cc(C(F)(F)F)cc(C(F)(F)F)c1)NO (centres unmarked)",
    "inhibition at 50 µM": "> 80%"
  },
  {
    "MOLECULE": "O=C(CCCCCCC(=O)Nc1ccc2c(c1)CCCC2O)NO (centres unmarked)",
    "inhibition at 50 µM": "> 80%"
  },
  {
    "MOLECULE": "Cc1[nH]c2ccccc2c1CCNC1CCc2cc(/C=C/C(=O)NO)ccc21 (centres unmarked)",
    "inhibition at 50 µM": "> 80%"
  },
  {
    "MOLECULE": "Nc1cc(F)ccc1NC(=O)/C=C/c1ccc2c(c1)CCC2NC(=O)c1cc(C(F)(F)F)cc(C(F)(F)F)c1 (centres unmarked)",
    "inhibition at 50 µM": "< 50%"
  },
  {
    "MOLECULE": "CN(C(=O)OCc1cc(C(F)(F)F)cc(C(F)(F)F)c1)C1CCc2cc(/C=C/C(=O)NO)ccc21 (centres unmarked)",
    "inhibition at 50 µM": "> 80%"
  }
]

Task: What measured inhibition at 50 µM goes with Nc1cc(F)ccc1NC(=O)/C=C/c1ccc2c(c1)CCC2NCCC(=O)Nc1cc(C(F)(F)F)cc(C(F)(F)F)c1 (centres unmarked) ?
Result: 50 to 80%

Task: Please do the same for Nc1cc(F)ccc1NC(=O)CCCCCCC(=O)NC1CCc2cc(Br)ccc21 (centres unmarked) as well.
Result: < 50%

Task: Please do the same for COc1ccc(C(=O)NC2CCc3cc(/C=C/C(=O)NO)ccc32)cc1 (centres unmarked) as well.
Result: > 80%

Task: Please do the same for "Nc1cc(F)ccc1NC(=O)CCCCCCC(=O)Nc1ccc2c(c1)CC/C(=C\c1cc(C(F)(F)F)cc(C(F)(F)F)c1)C2=O" as well.
Result: < 50%

Task: Please do the same for "Nc1cc(F)ccc1NC(=O)CCCCCNC(=O)c1ccc2c(c1)CC/C(=C\c1cc(C(F)(F)F)cc(C(F)(F)F)c1)C2=O" as well.
Result: < 50%

Task: Please do the same for "O=C(/C=C/c1ccc(CNC(=O)COc2ccc3c(c2)CC/C(=C\c2cc(C(F)(F)F)cc(C(F)(F)F)c2)C3=O)cc1)NO" as well.
Result: 50 to 80%

Task: Please do the same for Nc1cc(F)ccc1NC(=O)/C=C/c1ccc2c(c1)CCC2NS(=O)(=O)c1cc(C(F)(F)F)cc(C(F)(F)F)c1 (centres unmarked) as well.
Result: < 50%

Task: Please do the same for "O=C(CCCCCNC(=O)c1ccc2c(c1)CC/C(=C\c1cc(C(F)(F)F)cc(C(F)(F)F)c1)C2=O)NO" as well.
Result: > 80%
